Source listed as the supplement of paper PMC10567573.

B1: MNAT1 (parent)
chain: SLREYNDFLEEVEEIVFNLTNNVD

- Variants of: B1
- protocolSummary: protein stability index of a GFP-peptide fusion (GPS, HEK-293T) (PSI 1-6); higher = more stable;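 note: lentivirally expressed fusions sorted by FACS into six bins by GFP to DsRed ratio, PSI derived from sequencing read proportions per bin multiplied by bin number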
- conditionNotes: c terminus: a fixed tail appended
The label depends only on protein stability index: Criterion met if it is at least 2, Criterion not met if it is smaller.

sequencevariant=E13C group="Criterion met"
sequencevariant=F17Q group="Criterion met"
sequencevariant=F8W group="Criterion met"
sequencevariant=N22W group="Criterion met"
sequencevariant=V12W group="Criterion not met"
sequencevariant=E13H group="Criterion met"
sequencevariant=V23D group="Criterion met"
sequencevariant=E14A group="Criterion not met"
sequencevariant=L19Q group="Criterion met"
sequencevariant=N18E group="Criterion met"
sequencevariant=D24W group="Criterion not met"
